Where do these numbers come from? They come from patent US20030148958A1.

- TARGET_ENTITY: T1, corticotropin releasing factor 2 receptor; also: reference of the scale not given here
- T1 sequence (Q13324 whole entry, species assumed, looked up): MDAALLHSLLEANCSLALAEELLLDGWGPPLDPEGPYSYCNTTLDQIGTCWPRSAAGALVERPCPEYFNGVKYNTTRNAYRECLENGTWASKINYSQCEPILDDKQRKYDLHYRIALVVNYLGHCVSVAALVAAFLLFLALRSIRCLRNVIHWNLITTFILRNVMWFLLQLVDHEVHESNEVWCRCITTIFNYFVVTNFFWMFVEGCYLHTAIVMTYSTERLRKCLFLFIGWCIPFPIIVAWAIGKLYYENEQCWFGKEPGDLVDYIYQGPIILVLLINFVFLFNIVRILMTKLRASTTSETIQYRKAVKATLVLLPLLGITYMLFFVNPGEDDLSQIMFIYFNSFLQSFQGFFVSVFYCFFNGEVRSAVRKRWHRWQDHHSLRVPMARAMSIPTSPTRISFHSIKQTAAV
- PROTOCOL_DESCRIPTION: cell-based or functional assay
Ends that are not written are not given here.
Here, each record is paired with measured CRF2R Emax data.
Please make sure the unit comes right after the number.

BINDER: IVLSLDVPIGLLQTLLELARTQSQRERAEQNRIIFDSV-NH2 [SEQ ID NO 160]
CRF2R Emax: 87%

Consider the additional binder presented here.
In: So what does the record say about CRF2R Emax for ZGPPISIDLPTHLLRKMIEIEKQEKEKQQAANNRLLLDTI (C-terminal amide) [SEQ ID NO 74] ?
Out: 100%
